target-desc: Nitric oxide synthase, inducible (Homo sapiens) (UniProt P35228)
Sequence (P35228 whole entry): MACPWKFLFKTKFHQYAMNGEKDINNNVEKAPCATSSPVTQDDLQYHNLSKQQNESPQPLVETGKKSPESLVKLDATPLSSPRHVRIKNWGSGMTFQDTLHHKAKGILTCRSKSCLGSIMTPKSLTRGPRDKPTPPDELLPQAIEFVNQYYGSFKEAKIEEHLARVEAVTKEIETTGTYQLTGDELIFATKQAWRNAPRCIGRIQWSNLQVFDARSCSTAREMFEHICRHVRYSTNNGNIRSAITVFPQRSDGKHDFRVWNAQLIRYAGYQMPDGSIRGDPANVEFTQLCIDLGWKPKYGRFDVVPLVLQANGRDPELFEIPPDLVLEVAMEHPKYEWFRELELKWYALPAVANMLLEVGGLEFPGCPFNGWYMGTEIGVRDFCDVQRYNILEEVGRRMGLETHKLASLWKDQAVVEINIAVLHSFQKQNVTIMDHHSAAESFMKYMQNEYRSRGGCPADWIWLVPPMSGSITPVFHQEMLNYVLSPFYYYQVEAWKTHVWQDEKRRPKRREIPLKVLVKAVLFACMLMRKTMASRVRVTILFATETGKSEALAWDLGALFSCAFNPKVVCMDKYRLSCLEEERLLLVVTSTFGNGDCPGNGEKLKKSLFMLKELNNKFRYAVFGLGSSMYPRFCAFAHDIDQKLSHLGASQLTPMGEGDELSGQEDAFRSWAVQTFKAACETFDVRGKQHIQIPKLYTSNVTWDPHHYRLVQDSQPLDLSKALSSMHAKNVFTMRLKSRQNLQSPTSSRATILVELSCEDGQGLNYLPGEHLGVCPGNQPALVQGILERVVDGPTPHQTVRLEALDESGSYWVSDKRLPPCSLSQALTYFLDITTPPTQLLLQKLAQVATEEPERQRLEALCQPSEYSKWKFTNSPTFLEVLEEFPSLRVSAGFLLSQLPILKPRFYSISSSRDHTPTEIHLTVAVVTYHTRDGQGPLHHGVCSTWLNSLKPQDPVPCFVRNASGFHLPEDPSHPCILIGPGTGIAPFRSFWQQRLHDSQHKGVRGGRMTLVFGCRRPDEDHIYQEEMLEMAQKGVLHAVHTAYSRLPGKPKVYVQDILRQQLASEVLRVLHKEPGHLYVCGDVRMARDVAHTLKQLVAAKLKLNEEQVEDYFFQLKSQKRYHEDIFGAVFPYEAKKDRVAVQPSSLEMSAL
assay-text: Inhibition of iNOS (unknown origin)
The source made the active and inactive calls. The rule behind the calls is not given here.
outcome-measure: inhibition

Task: What value of measured inhibition is listed for COC(=O)[C@H]1O[C@@H]2C[C@H]3O[C@@H](n4cnc5c(N)ncnc54)[C@H](OC)[C@H]3O[C@@]2(O)[C@H](O)[C@@H]1O ?
Result: inactive

Task: Also C/C=C(\CO)C(=O)O[C@H]1[C@H](O)[C@@H](C(=O)OC)O[C@@H]2C[C@H]3O[C@@H](n4cnc5c(N)ncnc54)[C@H](OC)[C@H]3O[C@]21O ?
Result: inactive

Task: Next entry: C/C=C(\C)C(=O)O[C@H]1[C@H](O)[C@@H](C(=O)OC)O[C@@H]2C[C@H]3O[C@@H](n4cnc5c(N)ncnc54)[C@H](O)[C@H]3O[C@]21O
Result: inactive

Just for reference, ChEMBL document CHEMBL3108754 is where these values come from.
